B1: NETO1 (parent)
chain: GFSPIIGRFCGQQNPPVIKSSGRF

variants of: B1; assay: protein stability index of a GFP-peptide fusion (GPS, HEK-293T) (PSI 1-6); higher = more stable; conditions: c terminus: a fixed tail appended;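 further: lentivirally expressed fusions sorted by FACS into six bins by GFP to DsRed ratio, PSI derived from sequencing read proportions per bin multiplied by bin number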
QUANTITY: protein stability index
# print the numeric value only

Use these answered entries as a reference point.
>>> print(df.to_string())
                      chain  result
0  GKSPIIGRFCGQQNPPVIKSSGRF    2.28
1  GFSPIIGRFCGQNNPPVIKSSGRF    2.31
2  GFSPIIGRFCGQQNPPVIKSFGRF    1.68
3  GFSPIIGFFCGQQNPPVIKSSGRF    1.62

Query: Report measured protein stability index; entry is GFSPIIVRFCGQQNPPVIKSSGRF
Response: 1.83

Query: Report measured protein stability index; entry is GFSPIIGRVCGQQNPPVIKSSGRF
Response: 2.66

Query: Report measured protein stability index; entry is GFSPIIGYFCGQQNPPVIKSSGRF
Response: 1.83

Query: Report measured protein stability index; entry is GFSPIIGRFCGQQNPPVIKSSGRN
Response: 2.64

Query: Report measured protein stability index; entry is GFSPIIGRFCGQQNPPVIFSSGRF
Response: 1.69

Query: Report measured protein stability index; entry is GMSPIIGRFCGQQNPPVIKSSGRF
Response: 2

Query: Report measured protein stability index; entry is GFSPNIGRFCGQQNPPVIKSSGRF
Response: 2.34

The values you see were collected from the supplement of paper PMC10567573.
